System: HepG2
MEASUREMENT NOTES: cytotoxicity call (relative viability < 0.9)
EXPERIMENTAL PARAMETERS: 10 µM
Among all 39,000 compounds or so, about 3,300 (8.5%) were called active. The full list was thinned out, with actives kept by preference.
Please reply with one of these outcomes: yes (1) (active), no (0) (inactive)

Incoming: # fetch the recorded call for C[C@H](CO)N1C[C@H](C)[C@H](CN(C)C(=O)C2CCOCC2)Oc2cc(-c3ccc(F)cc3)ccc2S1(=O)=O here
Outgoing: no (0)

Incoming: Hi team, can someone confirm the assay call for C[C@@H]1CN([C@@H](C)CO)S(=O)(=O)c2ccc(C#Cc3ccncc3)cc2O[C@@H]1CN(C)C(=O)C1CCOCC1 ?
Outgoing: yes (1)

Incoming: Tell me the recorded outcome of this test for Cc1cc(C(=O)Nc2cccc3c2O[C@@H](CN(C)C(=O)Nc2ccccc2)[C@H](C)CN([C@@H](C)CO)C3=O)n(C)n1 .
Outgoing: no (0)

Incoming: Query: recorded result category for C[C@H](CO)N1C[C@H](C)[C@H](CN(C)C(=O)C2CCOCC2)Oc2cc(C#Cc3ccncc3)ccc2S1(=O)=O in this test
Outgoing: no (0)

Incoming: Hi team, can someone confirm the assay call for CC(C)CC#Cc1ccc2c(c1)O[C@@H](CN(C)C(=O)C1CCOCC1)[C@@H](C)CN([C@H](C)CO)S2(=O)=O ?
Outgoing: no (0)

Incoming: Write down the call the test reported for this compound. Item: C[C@@H]1CN([C@@H](C)CO)S(=O)(=O)c2ccc(C#Cc3ccncc3)cc2O[C@H]1CN(C)C(=O)C1CCOCC1
Outgoing: yes (1)

Incoming: Status in this test for CC(C)CC#Cc1ccc2c(c1)O[C@@H](CN(C)C(=O)C1CCOCC1)[C@H](C)CN([C@H](C)CO)S2(=O)=O ?
Outgoing: no (0)

Incoming: State the result this test recorded for O=C(/C=N/O)Nc1ccccc1C(=O)O .
Outgoing: no (0)

* * *

System: HepG2
MEASUREMENT NOTES: cytotoxicity call (relative viability < 0.9)
EXPERIMENTAL PARAMETERS: 10 µM
Hit rate of the full screen: of about 39,000 compounds, about 3,300 (8.5%) were called active. The list comes from a sample in which actives are over-represented; it also holds close analogues and randomly drawn compounds.
The categories you may choose from are T (active), F (inactive)

Incoming: Per the assay record, what outcome was assigned to CC[C@@H](C)c1ccc(NC(=O)c2ccc(N(CC)CC)cc2)cc1 ?
Outgoing: F

Incoming: State the result this test recorded for C[C@H](CO)N1C[C@H](C)[C@@H](CN(C)S(=O)(=O)c2ccccc2)Oc2ccc(NS(=O)(=O)c3cn(C)cn3)cc2C1=O .
Outgoing: F

Incoming: Lab log entry: Nc1nc(=O)[nH]cc1NC(=O)c1ccccc1 — outcome as called in the assay?
Outgoing: F

Incoming: Entry O=c1c(O)c(-c2cc(O)c(O)c(O)c2)oc2cc(O)cc(O)c12 : call = ?
Outgoing: F

Incoming: Which outcome did this test record for the molecule C[C@@H](N)c1ccc(C(=O)Nc2ccnc3[nH]ccc23)cc1 ?
Outgoing: T

* * *

System: HepG2
MEASUREMENT NOTES: cytotoxicity call (relative viability < 0.9)
EXPERIMENTAL PARAMETERS: 10 µM
Among all 39,000 compounds or so, about 3,300 (8.5%) were called active. This excerpt belongs to a sample that is enriched for actives.
Give one outcome, nothing more. List: label 1 (active), label 0 (inactive)

Incoming: In this assay, the call recorded for COc1ccc(C#Cc2ccc3c(c2)[C@]2(C(=O)N3)[C@H](c3ccc(O)cc3)N3[C@H](c4ccccc4)[C@H](c4ccccc4)OC(=O)[C@H]3[C@@H]2C(=O)N2CCCCCCC2)cc1 was what?
Outgoing: label 0

Incoming: How was O=C1O[C@@H](c2ccccc2)[C@@H](c2ccccc2)N2[C@@H](c3ccc(OCCO)cc3)[C@]3(C(=O)Nc4ccc(C#CC5=CCCCC5)cc43)[C@@H](C(=O)N3CCCCCCC3)[C@H]12 classified in this test?
Outgoing: label 1

Incoming: Would you mind telling me which call this test gave C/C=C/c1cnc2c(c1)C(=O)N([C@@H](C)CO)C[C@H](C)[C@@H](CN(C)S(=O)(=O)c1ccc(OC)cc1)O2 ?
Outgoing: label 0

Incoming: Per the assay record, what outcome was assigned to COc1ccc(Br)cc1S(=O)(=O)NC(=O)/C=C/c1ccccc1Cc1ccc2ccccc2c1 ?
Outgoing: label 0

Incoming: Could you kindly confirm the outcome this assay logged for COc1ccc(C#Cc2ccc3c(c2)[C@]2(C(=O)N3)[C@H](c3ccc(O)cc3)N3[C@H](c4ccccc4)[C@H](c4ccccc4)OC(=O)[C@H]3[C@@H]2C(=O)N2CCN(c3ncccn3)CC2)cc1 ?
Outgoing: label 0

Incoming: Test call for this compound, please: CCSC(=O)NC1CCCCC1
Outgoing: label 0

Incoming: Test call for this compound, please: O=C1O[C@H](c2ccccc2)[C@H](c2ccccc2)N2[C@H]1[C@@H](C(=O)O)[C@]1(C(=O)Nc3ccc(C#CC4=CCCCC4)cc31)[C@H]2C1CCCCC1
Outgoing: label 1
